Provide the recorded Dmax for the entries that follow.
Target: CDK2 (Homo sapiens)
Construct: endogenous in cells; host or cells: MKN1 cells
Experiment: CDK2 degradation in MKN1 cells (AlphaLISA)
Assay type: cell-based
Settings: MKN-1, 14 h incubation

Solved entries:
Cc1cc(S(=O)(=O)N[C@H](C)CO[C@H]2CC[C@H](CN3CCN(c4cccc5c4n(C)c(=O)n5C4CCC(=O)NC4=O)CC3)CC2)ccc1Nc1ncc(C(F)(F)F)c(N2CCC[C@](C)(O)C2)n1 (stereo partly drawn)
> 75%
Cc1cc(S(=O)(=O)NC2CCC(CN3CCN(c4ccc([C@H]5CCC(=O)NC5=O)c(Cl)c4)CC3)CC2)ccc1Nc1ncc(C(F)(F)F)c(N2CCC[C@](C)(O)C2)n1 (single isomer, unassigned)
> 75%

In the following, a different molecule is considered.
Form field Dmax, entry Cc1cc(S(=O)(=O)CCCO[C@H]2CC[C@H](CN3CCC(c4ccc5c(c4)n(C)c(=O)n5C4CCC(=O)NC4=O)CC3)CC2)ccc1Nc1ncc2cc(Cl)c(=O)n(C3CCCC3)c2n1 (stereo partly drawn) : > 75%

###

Target: CDK2 (Homo sapiens, UniProt P24941)
Construct: endogenous in cells; host or cells: MKN1 cells
Experiment: CDK2 degradation in MKN1 cells (AlphaLISA)
Assay type: cell-based
Settings: 14 h incubation, read-out: CDK2 degradation 14 h: Mean external-Abs DC50
experimentalEndpoint: DC50

Solved entries:
Cc1cc(S(=O)(=O)C2CC3(CCN(CC4CCN(c5ccc(NC6CCC(=O)NC6=O)c6ccccc56)CC4)CC3)C2)ccc1Nc1ncc2ccc(=O)n(C(C)C)c2n1 (centres unmarked)
100 to 500 nM
Cc1cc(S(=O)(=O)C2CC3(CCN(CC4CCN(c5ccc(NC6CCC(=O)NC6=O)c(C)c5)CC4)CC3)C2)ccc1Nc1ncc2cc(Cl)c(=O)n(C3CCCC3)c2n1 (centres unmarked)
500 to 1000 nM
Cc1cc(S(=O)(=O)C2CC3(CCN(CC4CCN(c5ccc(NC6CCC(=O)NC6=O)c(F)c5)CC4)CC3)C2)ccc1Nc1ncc2cc(Cl)c(=O)n(C3CCCC3)c2n1 (centres unmarked)
100 to 500 nM
Cc1cc(S(=O)(=O)N2CCC(CN(C)C3CCN(Cc4cccc5c4n(C)c(=O)n5C4CCC(=O)NC4=O)CC3)CC2)ccc1Nc1ncc2ccc(=O)n(C3CCCC3)c2n1 (centres unmarked)
< 100 nM
CC1(O)CCN(c2nc(Nc3ccc(S(=O)(=O)NC4CCN(CC5CCN(c6ccc(C7CCC(=O)NC7=O)cc6F)CC5)CC4F)cc3F)ncc2C(F)(F)F)CC1 (centres unmarked)
< 100 nM

Batch request: DC50 for each of the following compounds.
1. Cc1cc(S(=O)(=O)NCCOCCOCCNC(=O)COc2ccc(C3CCC(=O)NC3=O)cc2)ccc1Nc1ncc2cc(Cl)c(=O)n(C3CCCC3)c2n1 (centres unmarked)
2. Cc1cc(S(=O)(=O)C2CC3(CCN(CC4CCN(c5ccc6c(c5F)n(C)c(=O)n6C5CCC(=O)NC5=O)CC4)CC3)C2)ccc1Nc1ncc(C2CC2)c(N2CCCC(C)(O)C2)n1 (centres unmarked)
3. Cc1cc(S(=O)(=O)NC2CC(N3CCCN(CC4CCN(c5cccc6c5n(C)c(=O)n6C5CCC(=O)NC5=O)CC4)CC3)C2)ccc1Nc1ncc(C(F)(F)F)c(N2CCCC(C)(O)C2)n1 (centres unmarked)
4. Cc1cc(S(=O)(=O)C2CC3(CCN(CC4CCN(c5ccc6c(c5F)n(C)c(=O)n6C5CCC(=O)NC5=O)CC4)CC3)C2)ccc1Nc1ncc(C(F)(F)F)c(C2CCC(O)(C(C)C)CC2)n1 (centres unmarked)
5. Cc1cc(S(=O)(=O)N[C@H]2CC[C@H](CN3CCN(c4ccc(C5CCC(=O)NC5=O)cc4F)C[C@@H]3C)CC2)ccc1Nc1ncc(C(F)(F)F)c(N2CCC[C@](C)(O)C2)n1 (some centres unmarked)
6. Cc1cc(S(=O)(=O)NC2CCN(CC3CCN(c4c(F)ccc5c4n(C)c(=O)n5C4CCC(=O)NC4=O)CC3)CC2F)ccc1Nc1ncc2c(n1)N(C1CCCC(O)C1)C(=O)C21CC1 (centres unmarked)

< 100 nM
> 1000 nM
< 100 nM
> 1000 nM
< 100 nM
< 100 nM

Numbers sourced from patent US20240173419A1.
